# Assay System: B-Raf V600E (Homo sapiens, UniProt P15056, V600E)
# Sequence (P15056 whole entry V600E): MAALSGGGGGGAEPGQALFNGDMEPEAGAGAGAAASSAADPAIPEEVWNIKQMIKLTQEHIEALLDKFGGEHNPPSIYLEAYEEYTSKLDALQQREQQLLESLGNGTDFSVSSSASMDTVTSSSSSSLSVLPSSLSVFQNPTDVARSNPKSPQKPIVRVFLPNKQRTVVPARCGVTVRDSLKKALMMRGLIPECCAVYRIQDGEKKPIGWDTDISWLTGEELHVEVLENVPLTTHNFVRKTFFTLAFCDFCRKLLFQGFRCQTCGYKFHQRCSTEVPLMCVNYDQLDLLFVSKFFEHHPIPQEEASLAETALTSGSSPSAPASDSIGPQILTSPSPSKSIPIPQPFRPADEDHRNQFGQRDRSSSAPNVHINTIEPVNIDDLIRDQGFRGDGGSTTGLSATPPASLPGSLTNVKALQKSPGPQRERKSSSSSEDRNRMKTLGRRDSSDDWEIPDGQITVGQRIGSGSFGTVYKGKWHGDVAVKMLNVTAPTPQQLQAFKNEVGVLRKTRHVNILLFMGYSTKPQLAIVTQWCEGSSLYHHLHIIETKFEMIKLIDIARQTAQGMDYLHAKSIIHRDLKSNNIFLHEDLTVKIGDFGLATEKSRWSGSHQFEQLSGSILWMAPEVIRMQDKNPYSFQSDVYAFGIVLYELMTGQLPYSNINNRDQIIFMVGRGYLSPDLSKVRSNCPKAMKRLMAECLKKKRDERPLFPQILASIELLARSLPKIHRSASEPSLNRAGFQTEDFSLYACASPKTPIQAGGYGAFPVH
# Experimental Protocol: B-Raf V600E kinase activity assay (AlphaScreen, biotin-MEK1 substrate)
# Condition Label: 100 μM ATP, 100 nM biotin-MEK1, 45 minutes at room temperature, read-out: Biochemical activity (IC50 μM) V600E
IC50 values by entry

>  <Compound>
O=C(c1c(F)ccc(NS(=O)(=O)c2cc(F)ccc2F)c1F)c1c[nH]c2ncc(-c3ccc4[nH]ncc4c3)cc12 [P-0002]

>  <IC50>
< 0.1 µM

$$$$

Which IC50 is listed for CNS(=O)(=O)c1ccc(-c2cnc3[nH]cc(C(=O)c4c(F)ccc(NS(=O)(=O)c5cc(F)ccc5F)c4F)c3c2)cc1 [P-1706] ?
< 0.1 µM

Subsequent entry: Cc1ncc(-c2cnc3[nH]cc(C(=O)c4c(F)ccc(NS(=O)(=O)c5cc(F)ccc5F)c4F)c3c2)cn1 [P-1503]
< 0.1 µM

---

# Assay System: UniProtKB P11712
# Experimental Protocol: CYP2C9 inhibition (fluorescent substrate MFC)
# Format: in vitro ADME
# Condition Label: read-out: Cyp IC50 (μM) 2C9
Quick reference: IC50 of the listed items.

Reference set (4 entries):
>  <Smiles Repr>
COc1ccc(-c2cnc3[nH]cc(C(=O)c4c(F)ccc(NS(=O)(=O)c5cc(F)ccc5F)c4F)c3c2)cn1

>  <IC50>
> 10 µM

$$$$
>  <Smiles Repr>
CCCS(=O)(=O)Nc1ccc(F)c(C(=O)c2c[nH]c3ncc(-c4ccc5ncsc5c4)cc23)c1F

>  <IC50>
> 10 µM

$$$$
>  <Smiles Repr>
CCCS(=O)(=O)Nc1ccc(F)c(C(=O)c2c[nH]c3ncc(-c4ccc5[nH]ncc5c4)cc23)c1F

>  <IC50>
< 5 µM

$$$$
>  <Smiles Repr>
COc1ncc(-c2cnc3[nH]cc(C(=O)c4cccc(NS(=O)(=O)c5ccccc5F)c4F)c3c2)cn1

>  <IC50>
> 10 µM

$$$$

Would you mind telling me what IC50 value was observed for CCCS(=O)(=O)Nc1ccc(F)c(C(=O)c2c[nH]c3ncc(-c4ccc5[nH]cc(C)c5c4)cc23)c1F ?
> 10 µM

---

# Assay System: CYP2C9 (Homo sapiens, UniProt P11712)
# Sequence (P11712 whole entry): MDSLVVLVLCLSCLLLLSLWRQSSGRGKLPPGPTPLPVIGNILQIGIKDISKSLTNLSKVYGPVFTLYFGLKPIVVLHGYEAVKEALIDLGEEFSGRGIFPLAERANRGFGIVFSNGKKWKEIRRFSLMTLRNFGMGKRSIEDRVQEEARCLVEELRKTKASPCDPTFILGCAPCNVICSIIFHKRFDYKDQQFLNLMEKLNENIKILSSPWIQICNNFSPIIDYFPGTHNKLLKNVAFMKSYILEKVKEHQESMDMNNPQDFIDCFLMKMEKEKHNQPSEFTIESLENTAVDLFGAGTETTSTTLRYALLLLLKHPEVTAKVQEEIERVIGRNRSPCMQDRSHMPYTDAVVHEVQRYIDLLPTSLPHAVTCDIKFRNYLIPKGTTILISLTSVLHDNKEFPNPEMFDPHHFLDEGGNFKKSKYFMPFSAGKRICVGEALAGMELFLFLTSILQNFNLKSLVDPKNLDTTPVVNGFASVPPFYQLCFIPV
# Experimental Protocol: CYP2C9 inhibition (fluorescent substrate MFC)
# Type: in vitro ADME
# Condition Label: read-out: Cyp IC50 (μM) 2C9
Parameter: IC50

>  <Smiles Repr>
CC(=O)n1ncc2cc(-c3cnc4[nH]cc(C(=O)c5c(F)ccc(NS(=O)(=O)c6cc(F)ccc6F)c5F)c4c3)ccc21

>  <IC50>
< 5 µM

$$$$
>  <Smiles Repr>
CCCS(=O)(=O)Nc1ccc(F)c(C(=O)c2c[nH]c3ncc(-c4csc(-n5ccnc5C)n4)cc23)c1F

>  <IC50>
< 5 µM

$$$$
>  <Smiles Repr>
CCCS(=O)(=O)Nc1ccc(F)c(C(=O)c2c[nH]c3ncc(-c4ccc5c(cnn5S(C)(=O)=O)c4)cc23)c1F

>  <IC50>
> 10 µM

$$$$
>  <Smiles Repr>
CCCS(=O)(=O)Nc1ccc(F)c(C(=O)c2c[nH]c3ncc(-c4ccc5ncccc5c4)cc23)c1F

>  <IC50>
> 10 µM

$$$$
>  <Smiles Repr>
CC(=O)n1cc(C(=O)c2c(F)ccc(NS(=O)(=O)c3cc(F)ccc3F)c2F)c2cc(-c3ccc4c(cnn4C(C)=O)c3)cnc21

>  <IC50>
< 5 µM

$$$$
>  <Smiles Repr>
CCCS(=O)(=O)Nc1ccc(F)c(C(=O)c2c[nH]c3ncc(-c4cccc5nn(C)cc45)cc23)c1F

>  <IC50>
5 to 10 µM

$$$$

Requested field: IC50. Item: CCCS(=O)(=O)Nc1ccc(F)c(C(=O)c2c[nH]c3ncc(-c4ccc5cncnc5c4)cc23)c1F
5 to 10 µM

Also, CCCS(=O)(=O)Nc1ccc(F)c(C(=O)c2c[nH]c3ncc(-c4cnn(C5CCNCC5)c4)cc23)c1F please.
> 10 µM

What do you get for Cc1ncc(-c2cnc3[nH]cc(C(=O)c4c(F)ccc(NS(=O)(=O)c5cc(F)ccc5F)c4F)c3c2)cn1 ?
> 10 µM

Repeat for the following compound: O=C(c1c(F)ccc(NS(=O)(=O)c2ccc(C(F)(F)F)cc2)c1F)c1c[nH]c2ncc(-c3cnn(C4CCNCC4)c3)cc12
> 10 µM

Please answer likewise for CCCS(=O)(=O)Nc1ccc(F)c(C(=O)c2c[nH]c3ncc(-c4ccc5[nH]ccc5c4)cc23)c1F
5 to 10 µM

# iterate: O=C(c1c(F)ccc(NS(=O)(=O)c2cc(F)ccc2F)c1F)c1c[nH]c2ncc(-c3cnc(NC4CC4)nc3)cc12
< 5 µM

What about CC(=O)N(c1ccc(F)c(C(=O)c2cn(C(C)=O)c3ncc(-c4ccc5c(cnn5C(C)=O)c4)cc23)c1F)S(=O)(=O)c1cc(F)ccc1F ?
< 5 µM

Please answer likewise for CCCS(=O)(=O)Nc1ccc(F)c(C(=O)c2c[nH]c3ncc(-c4ccc5c(cnn5C(C)=O)c4)cc23)c1F
< 5 µM
